# MEASUREMENT_TARGET: T1, TGR12-GFP (fused protein of human TGR12 and GFP, encoded by the DNA of SEQ ID NO: 31), stably expressed on … (human, UniProt Q96LB1 1-330)
# T1 sequence: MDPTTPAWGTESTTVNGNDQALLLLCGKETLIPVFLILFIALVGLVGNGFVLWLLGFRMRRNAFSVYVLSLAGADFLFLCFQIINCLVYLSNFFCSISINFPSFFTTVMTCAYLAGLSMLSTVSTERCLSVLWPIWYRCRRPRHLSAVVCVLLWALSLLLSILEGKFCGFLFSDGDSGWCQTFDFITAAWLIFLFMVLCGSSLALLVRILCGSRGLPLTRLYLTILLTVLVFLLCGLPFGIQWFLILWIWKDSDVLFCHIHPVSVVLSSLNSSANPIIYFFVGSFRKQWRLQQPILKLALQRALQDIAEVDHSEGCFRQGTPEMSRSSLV
# TEST_METHOD_NOTES: cell-based or functional assay
Where no end group is shown, it is not given here.
Could you please report measured maximum activity in the calcium increasing effect (FLIPR), CHO-TGR12, at 3 nM for the items listed next?
Don't forget the unit after the number, please.

Illustrative cases are given below, each with its answer.
Inquiry: Record request: maximum activity in the calcium increasing effect (FLIPR), CHO-TGR12, at 3 nM value, item HSDGIFTDSYSRYRKQMAVKKYLAAVLGKRYKQRVKNK (peptide, UniProt P18509 132-169, looked up, not fully specified; ends and bridges not checked, domain: PACAP-38) [human PACAP38 (pituitary adenylate cyclase activating polypeptide 38)]
Reply text: 410 fluorescence intensity

Inquiry: What do you get for DRMPCRNFFWKTFSSCK (peptide, UniProt O00230 89-105, looked up, not fully specified; ends and bridges not checked) [human cortistatin-17] ?
Reply text: 54 fluorescence intensity

Inquiry: What do you get for HSDGIFTDSYSRYRKQMAVKKYLAAVL (peptide, UniProt P18509 132-158, looked up, not fully specified; ends and bridges not checked, domain: PACAP-27) [human PACAP27 (pituitary adenylate cyclase activating polypeptide 27)] ?
Reply text: 58 fluorescence intensity

Now consider the entry below.
Inquiry: Record request: maximum activity in the calcium increasing effect (FLIPR), CHO-TGR12, at 3 nM value, item HSDAVFTDNYTRLRKQMAVKKYLNSILN (peptide, UniProt P01282 125-152, looked up, not fully specified; ends and bridges not checked, domain: VIP; also called vasoactive intestinal peptide) [human VIP (vasoactive intestinal polypeptide)]
Reply text: 60 fluorescence intensity

These entries and their values trace back to patent US20100068208A1.
